Where do the numbers come from? From ChEMBL document CHEMBL1145200.

tested on: Human immunodeficiency virus 1; assay: In vitro inhibitory concentration against HIV G190A mutant strain; type: functional, organism-based
assay endpoint: IC50 (nM)
Output spec: scalar in nM, unitless text.

Some molecules with recorded IC50:
compound_structure=O=C1Nc2ccc(Cl)cc2[C@@](C#CC2CC2)(C(F)(F)F)O1 system="Human immunodeficiency virus 1" assay_endpoint=IC50 measured_value=10
compound_structure=CCc1c(C)[nH]c(=O)c(N(C)CCOC)c1Cc1cccc(C)c1 system="Human immunodeficiency virus 1" assay_endpoint=IC50 measured_value=100
compound_structure=CCc1c(C)[nH]c(=O)c(N(C)CC)c1Cc1cccc(/C=C/C#N)c1 system="Human immunodeficiency virus 1" assay_endpoint=IC50 measured_value=10
compound_structure=COCCCc1c(C)nc(O)c(N(C)C)c1C(=O)c1cccc(C)c1 system="Human immunodeficiency virus 1" assay_endpoint=IC50 measured_value=16

Turning now to a further record.
Field IC50 (entry CCc1c(C)[nH]c(=O)c(N(C)C)c1Cc1cc(C)cc(C)c1 ) reads 63

###

tested on: Human immunodeficiency virus 1; assay: In vitro inhibitory concentration against HIV-1 Y181C mutant strain; type: functional, organism-based
assay endpoint: IC50
I'd appreciate it if you included the unit after the number.

Some compounds with recorded IC50:
compound_structure=CCc1c(C)[nH]c(=O)c(N(C)CCOC)c1Cc1cccc(C)c1 system="Human immunodeficiency virus 1" measured_value="794 nM"
compound_structure=CCc1c(C)[nH]c(=O)c(N(C)CCO)c1Cc1cccc(C)c1 system="Human immunodeficiency virus 1" measured_value="1260 nM"

Measured IC50 (Human immunodeficiency virus 1), entry CCc1c(C)[nH]c(=O)c(N(CC)CC)c1Cc1cc(C)cc(C)c1 : 1260 nM
